- ASSAYED SYSTEM: T1, Lhp1 (yeast La protein) (Saccharomyces cerevisiae, UniProt P33399 1-275)
- T1 sequence: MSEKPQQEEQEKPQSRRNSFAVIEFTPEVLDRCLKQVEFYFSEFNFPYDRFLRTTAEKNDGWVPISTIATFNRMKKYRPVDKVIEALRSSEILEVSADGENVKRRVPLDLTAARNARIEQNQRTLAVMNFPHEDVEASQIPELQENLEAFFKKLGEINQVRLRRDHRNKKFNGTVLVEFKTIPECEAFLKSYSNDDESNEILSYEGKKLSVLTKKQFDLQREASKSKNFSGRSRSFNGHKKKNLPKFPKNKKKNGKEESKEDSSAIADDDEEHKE
- ASSAY OVERVIEW: fluorescence polarization; Hill 1.11; EMSA: 5 nM Cy3-U6, 100 mM KCl, 20% sucrose, 20 mM bis-tris/10 mM HCl, 1 mM EDTA, 1 mM TCEP, 0.01% Triton X-100, 0.1 mg/mL tRNA, 0.01 mg/mL heparin, 0.1 mg/mL BSA, room temp 20 min (gel 4 C); FP: 0.25-1 nM FAM-RNA, 100 mM NaCl, 20 mM bis-tris/10 mM HCl, 1 mM TCEP, 5% glycerol, 1 mM EDTA, yeast tRNA, BSA
- SETUP CONDITIONS: protein: recombinant; tags: N-terminal His8-TEV; label: 5' 6-FAM
PROPERTY NAME: Kd (nM)
Only the number, expressed in nM, is required.

Annotate the binder AGAGAUUUAUUUCGUUUUU (ssRNA, 2',3'-cis-diol end) [U6 95-112+1U 3'OH] with its measured Kd.
29
